ASSAY: chemical genetic growth profiling, strain panel (AID 1159580);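 further: tested at 20 µM; growth read once vehicle control cultures reached saturation at 30 °C; 1 = growth at the plate median or of vehicle wells; lower values mean less growth of the strain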
EXPERIMENTAL CONTEXT: S. cerevisiae deletion strains, growth OD, locus YOR061W, strain CKA2, hits give low values
Out of some 5,500 compounds screened, about 2,000 (36%) were called active. About 18% were inconclusive and are not listed. This is one part of the list.
// reported normalized growth per item
Keep the answer to the number alone.

# example entries with known answers
I'd like to know its normalized growth. The molecule in question is CCCNC(=O)NS(=O)(=O)c1ccc(Cl)cc1 1.01

I'd like to know its normalized growth. The molecule in question is O=C(O)CCC1NCC2CC1CN1CCCCC21 (stereo not given) 1

I'd like to know its normalized growth. The molecule in question is CC(C)c1nc(N(C)S(C)(=O)=O)nc(-c2ccc(F)cc2)c1/C=C/[C@@H](O)C[C@@H](O)CC(=O)O 0.994

I'd like to know its normalized growth. The molecule in question is Cc1ccc(NC(=S)C(C#N)C(=O)N2CCOCC2)c(C)c1 (stereo not given) 1.01

I'd like to know its normalized growth. The molecule in question is CC(C)=CC1C(C(=O)OCc2cccc(Oc3ccccc3)c2)C1(C)C (stereo not given) 0.977

Next molecule, normalized growth to be filled in.
I'd like to know its normalized growth. The molecule in question is CCCCCCCCCCCCCC(=O)OC1C(C)C2(O)C(C=C(CO)CC3(O)C(=O)C(C)=CC32)C2C(C)(C)C12OC(C)=O (stereo not given) 1.02
